biological target: Recombinant human hepsin (4776-SE-010, R&D Systems), activated (human) (UniProt P05981)
*: point of attachment. kt = C-terminal ketothiazole, c1csc(*)n1
Consider the following binders; for each one, report its IC50 of enzyme inhibition.
Give bare numbers, in nM.

Ac-SRLR-kt (SMILES CC(=O)N[C@@H](CO)C(=O)N[C@@H](CCCNC(=N)N)C(=O)N[C@@H](CC(C)C)C(=O)N[C@@H](CCCNC(=N)N)C(=O)c1nccs1) [Ac-SRLR(SEQ ID NO: 15)-kt] ... 5
Ac-SKFR-kt (SMILES CC(=O)N[C@@H](CO)C(=O)N[C@@H](CCCCN)C(=O)N[C@@H](Cc1ccccc1)C(=O)N[C@@H](CCCNC(=N)N)C(=O)c1nccs1) [Ac-SKFR(SEQ ID NO: 13)-kt] ... 51

Please state, for each entry, its recorded IC50 of enzyme inhibition.
1. LLR (N-terminal acetyl; C-terminus printed as -H) [Leupeptin (Ac-LLR-H)]
2. Ac-WQLR-kt (SMILES CC(=O)N[C@@H](Cc1c[nH]c2ccccc12)C(=O)N[C@@H](CCC(N)=O)C(=O)N[C@@H](CC(C)C)C(=O)N[C@@H](CCCNC(=N)N)C(=O)c1nccs1) [Ac-WQLR(SEQ ID NO: 3)-kt]

**A:**
1: 256; 2: 1
